measured_property: logP

Before answering, review these 8 worked examples.
smi	logP
COc1cc(N)c2c(c1N)C(=O)c1ccccc1C2=O	1.29
Cc1ccc2c(c1N)C(=O)c1ccccc1C2=O	2.8
Cc1cc(N(CCO)CCO)ccc1/N=N/c1ccc([N+](=O)[O-])cc1Cl	3.41
Nc1ccc(O)c2c1C(=O)c1ccccc1C2=O	1.8
O=[N+]([O-])c1ccc(Nc2ccccc2)c([N+](=O)[O-])c1	4.55
O=[N+]([O-])c1ccc(/N=N/c2ccc(N(CCO)CCO)cc2)cc1	2.05
O=[N+]([O-])c1ccc(/N=N/c2ccc(Nc3ccccc3)cc2)cc1	5.07
Oc1ccc(/N=N/c2ccccc2)cc1	3.18

(P) O=C1c2ccccc2C(=O)c2c(O)ccc(O)c21
(Q) O=C1C(c2[nH]c3c(Br)cc(Br)cc3c2O)=Nc2c(Br)cc(Br)cc21
(R) O=C1c2ccccc2C(=O)c2c(NCCO)ccc(NCCO)c21
(S) O=c1[nH]c2ccccc2c(O)c1/N=N/c1ccccc1
Arrange by logP, high to low. Provide your answer as the labels ordered per the instruction.
Q, S, P, R
(Q: 6.66, S: 4.2, P: 2.34, R: 1.17)

(P) Cc1cc(N(CCO)CCO)ccc1/N=N/c1ccccc1
(Q) CCN(CC)c1ccc(/N=N/c2ccc([N+](=O)[O-])cc2)cc1
So which one has the bigger logP here, P or Q ? Bench note: the answer is the label of the chosen record.
Q

(1) Cc1cc(N(CCO)CCO)ccc1/N=N/c1ccc([N+](=O)[O-])cc1
(2) O=[N+]([O-])c1ccc(Nc2ccc(O)cc2)c([N+](=O)[O-])c1
Lower value for measured logP? Options: 1 , 2 Bench note: the answer is the label of the chosen record.
1

(a) Cc1cc(N(CCO)CCC#N)ccc1/N=N/c1ccc([N+](=O)[O-])cc1
(b) CNc1ccc(O)c2c1C(=O)c1c(O)ccc(NC)c1C2=O
(c) c1ccc2oc(-c3ccc(-c4nc5ccccc5o4)s3)nc2c1
Arrange by logP, high to low. Provide your answer as the labels ordered per the instruction.
c, a, b

(A) CNc1cccc2c1C(=O)c1ccccc1C2=O
(B) Cc1cc(N(CCO)CCO)ccc1/N=N/c1c(Cl)cc([N+](=O)[O-])cc1Cl
So which one has the bigger logP here, A or B ? Bench note: the answer is the label of the chosen record.
B
(B: 4.12, A: 2.87)

(P) O=C1c2ccccc2C(=O)C1c1nc2ccccc2cc1O
(Q) CCN(CCO)c1ccc(/N=N/c2ccc([N+](=O)[O-])cc2Cl)cc1
Lower value for measured logP? Options: P , Q Bench note: the answer is the label of the chosen record.
P

(P) Cc1cc(N(CCO)CCO)ccc1/N=N/c1ccc([N+](=O)[O-])cc1[N+](=O)[O-]
(Q) O=[N+]([O-])c1ccc(/N=N/c2ccccc2)cc1
Lower value for measured logP? Options: P , Q Bench note: the answer is the label of the chosen record.
P

(A) COc1cc([N+](=O)[O-])ccc1/N=N/c1ccc(N(CCO)CCO)cc1
(B) CN(C)c1ccc(/N=N/c2ccc([N+](=O)[O-])cc2)cc1
So which one has the bigger logP here, A or B ? Bench note: the answer is the label of the chosen record.
B
(B: 3.79, A: 2.27)
